Attribution: PubChem BioAssay (NCI)

Tested on: DU-145 prostate
test_protocol: NCI-60 one-dose screen, 48 h
condition_info: 10 µM unless noted
About 83,000 compounds went through this panel and 20% of them were active in at least one assay; those are over-represented in the sample as a whole. Calls of active or inactive are those of the source. How the source made its calls: active means growth percent below 10; inactive means the rest.
Outcome codes: active, inactive

INSERT INTO assay_data (compound, target_of_assay, label_value) VALUES
  ('Nc1nc2c(c3ncccc13)C(c1cccc(Br)c1)Cc1ncccc1-2 (centres undefined)', 'DU-145 prostate', 'inactive'),
  ('CCOC(=O)c1c2ncccc2n2c(=O)n(-c3ccc(Cl)cc3)nnc12', 'DU-145 prostate', 'inactive'),
  ('O=S(=O)(Nc1ccc(F)c(Cl)c1)c1ccc(-c2cnc(C3CC3)o2)cc1', 'DU-145 prostate', 'inactive'),
  ('O=C1/C(=C/c2ccc(Cl)cc2Cl)CN(S(=O)(=O)c2ccccc2)C/C1=C\c1ccc(Cl)cc1Cl', 'DU-145 prostate', 'active'),
  ('O=C1/C(=C/c2ccc(F)cc2)CN(C(=O)CCN2CCC(=NO)CC2)C/C1=C\c1ccc(F)cc1', 'DU-145 prostate', 'active'),
  ('CCCCNC(=O)NS(=O)(=O)c1ccc(N2N=C(c3cc(C)ccc3C)CC2c2cc(OC)c(OC)c(OC)c2)cc1 (centres undefined)', 'DU-145 prostate', 'inactive'),
  ('CCC(c1ccc(O)cc1)C(CC)c1ccc(O)c(F)c1 (centres undefined)', 'DU-145 prostate', 'inactive'),
  ('CCCCCN(CCCCC)CCC[C@@H](C)[C@H]1CC[C@H]2[C@@H]3[C@H](OCCCN)C[C@@H]4C[C@H](OCCCN)CC[C@]4(C)[C@H]3C[C@H](OCCCN)[C@]12C', 'DU-145 prostate', 'inactive'),
  ('Cc1ccc2c(c1)O/C(=C\c1cccc(OCC(=O)c3ccccc3)c1)C2=O', 'DU-145 prostate', 'inactive'),
  ('COc1ccc(CCN2CC=Cn3c2nc2ccccc2c3=O)cc1', 'DU-145 prostate', 'active'),
  ('Nc1nc2ccc(-c3nc4ccc5[nH]ncc5c4c4c3CCC4)cc2s1', 'DU-145 prostate', 'inactive'),
  ('Cc1cc(Nc2nc(-c3cccnc3)nc3ccccc23)n[nH]1', 'DU-145 prostate', 'inactive'),
  ('COc1cc(OC)c(/C=C/S(=O)(=O)Cc2cnc(OC)c(N)c2)c(OC)c1', 'DU-145 prostate', 'active'),
  ('CN1CCN(Cc2ccc(NC(=O)c3cncc(C#Cc4c(N)ncc5ccc(C#N)cc45)c3)cc2C(F)(F)F)CC1', 'DU-145 prostate', 'active');

* * *

Test system: MOLT-4 leukemia
test_protocol: NCI-60 one-dose screen, 48 h
condition_info: 10 µM unless noted
About 83,000 compounds went through this panel and 20% of them were active in at least one assay; those are over-represented in the sample as a whole. The source made the active and inactive calls. Rule for the calls: active = growth percent below 10; inactive = the rest.
Outcome codes: YES for active, NO for inactive

INSERT INTO assay_data (compound, label_value) VALUES
  ('COc1cc(OC)c(/C=C/C(=O)c2c(OC)cc(OC)cc2OC)c(OC)c1', 'YES'),
  ('COc1ccc(C(=O)/C=C/c2c[n+](=O)c3ccc(F)cc3n2[O-])cc1', 'NO'),
  ('CC1=CC(=O)CC(C)(C)[C@@]1(O)/C=C/[C@@H](C)O', 'NO'),
  ('ClC1=C2NC=NC2n2c(nnc2-c2ccc(Cl)cc2)N1 (centres undefined)', 'NO'),
  ('O=C1C[C@H](Sc2nc(-c3ccc(F)cc3)cc(C(F)(F)F)n2)[C@H]2CO[C@@H]1O2', 'NO'),
  ('CC(C)(C)n1cc(-c2ccnc(NCCNS(=O)(=O)c3ccccc3)c2)c(-c2cccc(O)c2)n1', 'NO'),
  ('CSc1nc(NCCO)c(C#N)c(-c2cccc(N)c2)n1', 'NO'),
  ('Cc1ccc2c(c1)n([O-])c1cc(Cl)ccc1[n+]2=O', 'YES'),
  ('CCCCCCCCCC(=O)Oc1ccc(/C(=C(/C)c2ccccc2)c2ccc(OCCN3CCCC3)cc2)cc1', 'YES'),
  ('O=c1cc(-c2ccccc2)[nH]c2ccccc12', 'NO'),
  ('COc1ccc(-c2cc(C(=O)N=Nc3c(O)[nH]c4ccccc34)no2)cc1', 'NO'),
  ('CCCCCCCCCCCCN1CCCC(C)C1 (centres undefined)', 'NO'),
  ('CCCCCCCCCCCCNC(=O)[C@H]1CSC(c2ccc(OC)c(F)c2)N1 (some centres undefined)', 'YES'),
  ('C[C@H](CCC(=O)O)[C@H]1CC[C@H]2[C@@H]3CC[C@@H]4/C(=C\c5ccco5)C(=O)/C(=C\c5ccco5)C[C@]4(C)[C@H]3CC[C@]12C', 'YES'),
  ('NC(CC(=O)O)C(=O)OCc1ccccc1 (centres undefined)', 'NO'),
  ('CC/C=C\C[C@H](O)C/C=C1/C(=O)C=C[C@@H]1C/C=C\CCCC(=O)OC(C)C', 'YES'),
  ('CC(=O)C1=C(O)C=C2Oc3c(C(=O)/C=C/c4ccccc4)c(O)c(C)c(O)c3[C@]2(C)C1=O', 'NO'),
  ('O=C1NC(=O)C(CC(=O)n2c(-c3ccccc3)nc3ccccc32)C(=O)N1', 'NO'),
  ('COc1cc(C2CC(=O)Nc3c2cnn3Cc2ccco2)cc2c1OCCO2 (centres undefined)', 'NO'),
  ('Oc1c(Cl)cc(Cl)cc1CNc1nccnn1', 'NO'),
  ('CCN(CC)CCC(=O)c1ccc(OC)c2ccccc12', 'NO'),
  ('CC(C)(C)n1cc(-c2ccnc(NCCCNS(=O)(=O)c3cccc4ccccc34)c2)c(-c2cccc(O)c2)n1', 'YES'),
  ('CC(=O)Nc1ccc2c(c1)c(NC(C)=O)nn2C(=O)Nc1ccc(Cc2ccccc2)cc1', 'NO'),
  ('CC(=O)O[C@H]1CC[C@]2(C)[C@H]3CC[C@@H]4[C@H]5[C@H](C(C)C)CC[C@]5(C(=O)OCC(CO)(CO)N=C(N)N)CC[C@@]4(C)[C@]3(C)CC[C@H]2C1(C)C', 'YES'),
  ('O=C1Nc2ccccc2C12CC(c1ccc(Cl)cc1)=NN2 (centres undefined)', 'NO'),
  ('CCCCCCCCCCCCCC(=O)C(C)N (centres undefined)', 'NO'),
  ('COc1ccc(C(=O)c2sc3nc(-c4ccccc4OC)ccc3c2N)cc1OC', 'YES'),
  ('O=C1CC(c2nc3ccccc3[nH]2)CN1C1CCCCC1 (centres undefined)', 'NO'),
  ('Cc1nn(-c2nc3ccccc3[nH]2)c2c1C(c1ccc3c(c1)OCO3)CC(=O)N2 (centres undefined)', 'YES');
